Every entry's value here was drawn from PubChem BioAssay (Tox21).

- TEST_PROTOCOL: qHTS assay to identify small molecule antagonists of the estrogen related receptor (ERR) signaling pathway from Tox21 library - cell viability counter screen (AID 1224834); also: nearly all actives have a fitted effect of over 30% in size
- ASSAY_SETUP: ERR reporter cells viability, CellTiter-Fluor, 17.5 h; series mostly up to 92.4 µM
Results filed as inconclusive are left out. The source made the active and inactive calls. Calls follow the shape of the dose curve; as a rule, active = well fitted cell-killing curve with a large enough effect in the repeat runs; inconclusive = weak or mixed curves; inactive = flat fitted curve, though single readings scatter.
OBSERVED_PROPERTY: outcome

For orientation, consider the following solved cases.
COC(=O)c1cccnc1	inactive
CCCCC(C=O)CC (stereo not given)	inactive
CN(C)c1ccc(Cc2ccc(N(C)C)cc2)cc1	inactive
COc1ccc(C)cc1N	inactive

Next, consider the following molecule.
If you can, please state the reported outcome value of `N[C@H](Cc1c[nH]c2ccccc12)C(=O)O` . inactive

* * *

- TEST_PROTOCOL: qHTS assay to identify small molecule agonists of the endoplasmic reticulum stress response signaling pathway - cell viability counter screen (AID 1159517);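 also: HeLa cells carrying an ER stress response element beta-lactamase reporter; nearly all actives have a fitted effect of over 50% in size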
- ASSAY_SETUP: ESRE-bla HeLa viability, CellTiter-Glo luminescence, 5 h; series mostly up to 61 µM
Inconclusive results are not listed. The source made the active and inactive calls. The call rests on the fitted dose curve.
OBSERVED_PROPERTY: outcome

For orientation, consider the following solved cases.
CNC(=O)Oc1ccc2c(c1)[C@]1(C)CCN(C)[C@@H]1N2C	inactive
CNC(=S)N(C)C	inactive
Cc1ccc(C(C)C)c(O)c1	inactive
Nc1nc(N)nc(-c2ccccc2)n1	inactive
O=S(=O)(O)c1ccc(N=Nc2c(O)ccc3cc(S(=O)(=O)O)ccc23)cc1	inactive
CCO[Si](CCC#N)(OCC)OCC	inactive

Give measured outcome for every item shown.
1. CCOCC(=O)O
2. OC1C(O)C(O)C(O)C(O)C1O (stereo unspecified)
3. C=CC[N+](C)(C)CC=C
4. C[C@]12CCC(=O)C=C1CC[C@@H]1[C@@H]2[C@@H](O)C[C@@]2(C)[C@H]1CC[C@]2(O)C(=O)CO

1. inactive
2. inactive
3. inactive
4. inactive

Give measured outcome for every item shown.
1. COc1ccc(OC)cc1
2. c1ccc(Oc2ccccc2)cc1
3. C=CC(=O)OCCC(=O)O
4. COc1ccccc1OCC(O)CO (stereo unspecified)

inactive
inactive
inactive
inactive

Give measured outcome for every item shown.
1. OCc1cccc(Oc2ccccc2)c1
2. CCCOC(=O)c1ccccc1

["inactive", "inactive"]

Give measured outcome for every item shown.
1. NCCN1CCNCC1
2. O=C1CCCC1
3. Nc1ccc(Cl)c(N)c1
4. CCc1ccccc1CC
5. CCO[Si](CCCN)(OCC)OCC
6. CC(C)(C)c1cc(Cc2cc(C(C)(C)C)c(O)c(C(C)(C)C)c2)cc(C(C)(C)C)c1O

1. inactive
2. inactive
3. inactive
4. inactive
5. inactive
6. inactive

* * *

- MEASUREMENT_TARGET: Peroxisome proliferator-activated receptor delta (Homo sapiens)
- TEST_PROTOCOL: qHTS assay to identify small molecule antagonists of the peroxisome proliferator-activated receptor delta (PPARd) signaling pathway (AID 743215);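 also: cells stimulated with agonist L165041 at 300 nM final during compound exposure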
- ASSAY_SETUP: HEK293H PPARd-UAS-bla, beta-lactamase FRET ratio, antagonist, 17 h; series mostly up to 62 µM
Records with an inconclusive call do not appear. Calls of active or inactive are those of the source. Calls follow the shape of the dose curve; as a rule, active = well fitted inhibition curve with a large enough effect in the signal ratio in the repeat runs (not every such curve was filed as active); inconclusive = weak or mixed curves, or effect the other way; inactive = no such curve, though single readings can be large or run the other way; the % refers to the signal ratio.
OBSERVED_PROPERTY: outcome

For orientation, consider the following solved cases.
O=C(O)/C=C/C(=O)O	inactive
CC(CCl)OP(=O)(OC(C)CCl)OC(C)CCl (stereo not given)	inactive
CC(C)(Oc1ccc(CCNC(=O)c2ccc(Cl)cc2)cc1)C(=O)O	inactive
CC1(C)S[C@@H]2[C@H](NC(=O)COc3ccccc3)C(=O)N2[C@H]1C(=O)O	inactive
CCCCCC(=O)O	inactive

Give measured outcome for every item shown.
1. C=CC[N+](C)(C)CC=C
2. COc1ccc(N)c(C)c1
3. C[Si]1(C)O[Si](C)(C)O[Si](C)(C)O[Si](C)(C)O1

["inactive", "inactive", "inactive"]

Give measured outcome for every item shown.
1. NCCCCCCN
2. CN/C(=C\[N+](=O)[O-])NCCSCc1csc(CN(C)C)n1

["inactive", "inactive"]

Give measured outcome for every item shown.
1. CCNc1ccccc1
2. CCCCOC(=O)c1ccc(N)cc1
3. C=C(C)CNCC
4. NC(=S)NNC(N)=S
5. CSc1ccc(Cl)cc1

1: inactive; 2: inactive; 3: inactive; 4: inactive; 5: inactive
